# target_desc: EPHB2 (UniProt P29323)
# Sequence (P29323 whole entry, looked up): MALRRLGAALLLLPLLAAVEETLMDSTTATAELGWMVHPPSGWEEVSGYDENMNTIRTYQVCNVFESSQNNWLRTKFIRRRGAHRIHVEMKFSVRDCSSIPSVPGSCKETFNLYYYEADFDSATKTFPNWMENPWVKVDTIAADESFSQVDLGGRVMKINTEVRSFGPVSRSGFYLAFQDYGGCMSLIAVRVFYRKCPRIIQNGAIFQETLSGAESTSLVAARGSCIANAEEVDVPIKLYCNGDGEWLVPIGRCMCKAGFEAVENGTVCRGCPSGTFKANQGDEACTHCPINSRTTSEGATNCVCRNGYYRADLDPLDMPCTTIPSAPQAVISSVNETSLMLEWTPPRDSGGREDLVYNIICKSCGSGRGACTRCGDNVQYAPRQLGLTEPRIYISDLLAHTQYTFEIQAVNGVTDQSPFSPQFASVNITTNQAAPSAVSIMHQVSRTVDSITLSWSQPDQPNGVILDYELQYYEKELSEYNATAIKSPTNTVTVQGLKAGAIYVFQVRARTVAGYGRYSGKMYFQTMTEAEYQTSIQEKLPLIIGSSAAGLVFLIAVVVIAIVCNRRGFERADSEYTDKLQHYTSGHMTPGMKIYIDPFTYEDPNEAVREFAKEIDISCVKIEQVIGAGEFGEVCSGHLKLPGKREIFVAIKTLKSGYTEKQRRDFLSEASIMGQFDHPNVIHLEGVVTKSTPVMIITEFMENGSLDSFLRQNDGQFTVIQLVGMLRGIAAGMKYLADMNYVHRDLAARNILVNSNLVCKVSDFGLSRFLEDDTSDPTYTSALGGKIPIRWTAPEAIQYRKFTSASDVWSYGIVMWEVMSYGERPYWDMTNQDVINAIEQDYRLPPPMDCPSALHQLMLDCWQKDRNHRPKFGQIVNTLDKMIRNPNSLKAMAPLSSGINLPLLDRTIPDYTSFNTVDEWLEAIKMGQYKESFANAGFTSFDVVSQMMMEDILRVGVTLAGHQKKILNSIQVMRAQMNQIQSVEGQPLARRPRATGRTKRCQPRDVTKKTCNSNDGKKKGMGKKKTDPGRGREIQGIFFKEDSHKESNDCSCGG
# assay_name: phosphorylation enrichment, bacterial display (enrichment ratio); higher = better substrate or ligand; peptides without Tyr show the background
Is phosphorylation enrichment at least 0.6? Then Met. If not, Not met.

> print(dat)
                     monomer.sequence  group.label
1      MNLLGYRQVRS [CHST4_Y359_H361Q]      Not met
2  IVAREYFSDAD [CAMK2A_Y106_E109D_YF]      Not met
3    GVKLTYGDAQS [SLC28A1_Y404_N409S]      Not met
4         ILGRTYFVNHE [NEDD4_Y627_YF]      Not met
5   FRTGHYLCNAC [GATA1_Y223_D218Y_YF]      Not met

Input line: Given FGLPRYRWLTH [TSPAN12_Y143_YF] , state whether its phosphorylation enrichment is at least 0.6.
Output line: Met

Input line: I'd appreciate it if you could say whether QFPDVYAREEV [CRX_Y67_YF] has phosphorylation enrichment at least equal to 0.6.
Output line: Not met

Input line: API: above_or_equal(metric=phosphorylation enrichment, cutoff=0.6) for item DAPVVYLGSFG [PRAG1_Y132_R137G]
Output line: Not met

Input line: Textbook exercise: given the entry IRKKFYRAILE [CHD7_Y1218_Q1214R_YF] , state whether its phosphorylation enrichment is greater than or equal to 0.6.
Output line: Not met

====

Some sequences, each annotated with its measured phosphorylation enrichment.
# target_desc: Fes (UniProt P07332)
# Sequence (P07332 whole entry, looked up): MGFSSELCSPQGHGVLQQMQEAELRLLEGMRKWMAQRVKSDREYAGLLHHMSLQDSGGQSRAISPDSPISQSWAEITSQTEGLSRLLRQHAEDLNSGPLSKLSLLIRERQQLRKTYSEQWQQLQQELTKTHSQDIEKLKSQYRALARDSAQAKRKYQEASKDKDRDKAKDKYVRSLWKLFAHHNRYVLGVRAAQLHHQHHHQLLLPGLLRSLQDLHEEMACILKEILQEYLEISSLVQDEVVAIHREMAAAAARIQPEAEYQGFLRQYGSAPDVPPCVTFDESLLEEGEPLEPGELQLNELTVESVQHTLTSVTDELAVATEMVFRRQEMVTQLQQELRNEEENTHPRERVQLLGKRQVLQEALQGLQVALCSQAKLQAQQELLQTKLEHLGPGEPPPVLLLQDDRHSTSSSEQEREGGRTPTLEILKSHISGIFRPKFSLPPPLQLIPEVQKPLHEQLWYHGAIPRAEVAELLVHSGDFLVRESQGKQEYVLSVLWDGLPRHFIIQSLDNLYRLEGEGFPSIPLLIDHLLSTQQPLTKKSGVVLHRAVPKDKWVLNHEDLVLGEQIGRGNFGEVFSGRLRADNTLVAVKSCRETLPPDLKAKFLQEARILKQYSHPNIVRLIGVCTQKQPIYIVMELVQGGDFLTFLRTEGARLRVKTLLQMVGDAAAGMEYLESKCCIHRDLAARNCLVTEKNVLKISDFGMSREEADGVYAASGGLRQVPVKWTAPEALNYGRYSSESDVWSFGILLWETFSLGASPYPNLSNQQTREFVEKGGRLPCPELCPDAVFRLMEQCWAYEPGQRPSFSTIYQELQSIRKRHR
# assay_name: phosphorylation enrichment, bacterial display (enrichment ratio); higher = better substrate or ligand; peptides without Tyr show the background

> print(dat)
                  monomer.sequence  reported
1  DNEALYDTCFR [TUBB2B_Y208_I210T]      1.49
2   LTNDRYVATLT [IL6ST_Y396_L397V]     0.791
3   FSALDYKIFYY [WDPCP_Y210_L205F]      1.45
4      GDEAIYATVAG [NRTKtide_2018]      2.64
5   KMKGEYYRYLA [YWHAG_Y130_D129E]     0.961

Input line: I am curious: what phosphorylation enrichment value has been reported for LAARYYNWVSF [FLT4_Y1231] ?
Output line: 1.8

Input line: I have this sequence here, DRKRQYELLKL [KIF4B_Y684] , and I need its recorded phosphorylation enrichment.
Output line: 0.758

====

# target_desc: SHP2-C SH2;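 also: peptide library displayed on the E. coli surface as eCPX fusions, selected cells deep-sequenced, score is each peptide's frequency after selection divided by its frequency in the input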
# assay_name: SH2 binding enrichment of the phosphorylated peptide, bacterial display (enrichment ratio); higher = better substrate or ligand; peptides without Tyr show the background
Decide by SH2 binding enrichment: equal to or exceeding 0.6 means Criterion met, less means Criterion not met.

> print(dat)
                      monomer.sequence        group.label
1       PEVRRCVLPLN [RPE65_Y368_Y368C]      Criterion met
2  GLAELYEFQKK [CKAP5_Y1854_K1857Q_YF]  Criterion not met
3         GVIRHSVVCST [BTK_Y334_Y334S]      Criterion met
4              EDKFMYFEFPQ [PTEN_Y240]      Criterion met
5        SGADSYEMEED [EGFR_Y316_C311S]      Criterion met

Input line: Form field: SH2 binding enrichment at least 0.6? Entry: RGVTRYIYNRE [HLA-DQB1_Y62_Y58G]
Output line: Criterion met

Input line: Given RELGEYPLAEY [ALDH1A3_Y492_A493P] , state whether its SH2 binding enrichment is at least 0.6.
Output line: Criterion not met

====

# target_desc: FGFR1 (UniProt P11362)
# Sequence (P11362 whole entry, looked up): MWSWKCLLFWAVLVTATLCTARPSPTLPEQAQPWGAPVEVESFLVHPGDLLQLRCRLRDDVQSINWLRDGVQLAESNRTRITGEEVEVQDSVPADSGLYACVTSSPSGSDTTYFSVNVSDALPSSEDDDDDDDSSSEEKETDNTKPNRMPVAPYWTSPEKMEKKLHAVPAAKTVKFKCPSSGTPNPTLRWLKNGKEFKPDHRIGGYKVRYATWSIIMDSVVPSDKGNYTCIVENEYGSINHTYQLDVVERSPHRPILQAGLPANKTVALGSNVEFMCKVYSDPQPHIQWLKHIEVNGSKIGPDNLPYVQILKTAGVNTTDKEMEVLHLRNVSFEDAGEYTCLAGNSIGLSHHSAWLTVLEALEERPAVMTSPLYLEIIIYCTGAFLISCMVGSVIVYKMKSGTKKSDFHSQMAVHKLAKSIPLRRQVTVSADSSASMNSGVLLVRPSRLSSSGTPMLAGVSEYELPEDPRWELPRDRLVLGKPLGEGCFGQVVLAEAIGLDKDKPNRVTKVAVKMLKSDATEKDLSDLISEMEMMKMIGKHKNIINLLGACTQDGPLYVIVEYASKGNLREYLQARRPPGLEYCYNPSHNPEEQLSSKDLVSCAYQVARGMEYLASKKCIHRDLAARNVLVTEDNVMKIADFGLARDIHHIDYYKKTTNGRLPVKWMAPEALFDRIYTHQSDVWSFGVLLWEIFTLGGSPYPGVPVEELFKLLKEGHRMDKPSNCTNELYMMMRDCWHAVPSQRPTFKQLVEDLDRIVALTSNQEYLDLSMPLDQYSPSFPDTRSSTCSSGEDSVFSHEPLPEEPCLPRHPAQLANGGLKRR
# assay_name: phosphorylation enrichment, bacterial display (enrichment ratio); higher = better substrate or ligand; peptides without Tyr show the background
measurement_name: phosphorylation enrichment
In your answer, state the number alone without any accompanying words.

These solved cases illustrate the format of a correct answer.
> print(dat)
                   monomer.sequence             target.desc  reported
1  CTTIHYTFMCN [TP53_Y234_N235T_YF]  FGFR1 (UniProt P11362)     0.718
2     KWLEQYTQAIE [LSP1_Y234_Q229K]  FGFR1 (UniProt P11362)     0.472
3          LAARYYNWVSF [FLT4_Y1231]  FGFR1 (UniProt P11362)      4.29
4           AAQNCYKVTNG [TPI1_Y105]  FGFR1 (UniProt P11362)     0.523

Input line: Entry QEIATYRPLLE [KRT14_Y415_R417P] has what phosphorylation enrichment?
Output line: 0.78

Input line: Quick one: phosphorylation enrichment of DRIVNYSRASV [ATP7A_Y1459_I1464V] ?
Output line: 0.467

Input line: Would you kindly share the measured phosphorylation enrichment for HTVEDYQAIVD [CCT7_Y263] ?
Output line: 0.818

Input line: Any idea what phosphorylation enrichment was measured for MSLRSYGSREG [APC_Y96] ?
Output line: 0.373

Input line: phosphorylation enrichment lookup needed for EGDGVYTLNDE [HP_Y125_N129D] , thanks.
Output line: 0.453

Input line: Could you share which phosphorylation enrichment value was measured for FRTGHYLCNAC [GATA1_Y223_D218Y_YF] ?
Output line: 0.566

Input line: // returns reported phosphorylation enrichment for input LLKMMYLMLDN [STAT1_Y203_K201M]
Output line: 0.874

Input line: Given the sequence ILLAGYLVMVI [SLC28A3_Y113] , what is its reported phosphorylation enrichment?
Output line: 0.58

Input line: What measured phosphorylation enrichment goes with VSKGGYFSVNL [C3orf33_Y164] ?
Output line: 0.428

Input line: Quick check: phosphorylation enrichment of IKRIDYEFVEM [ADA_Y84_A83D] ?
Output line: 1.02

Input line: Reported phosphorylation enrichment, sequence SDPIIYTLENV [ADGRE1_Y534_I539V] : ____
Output line: 0.577

Input line: What measured phosphorylation enrichment goes with CGTPDYIAPEI [PRKCG_Y521] ?
Output line: 1.23

Input line: Value lookup for phosphorylation enrichment; key = RVNSAYQEKVS [ACAN_Y100_D102E]
Output line: 0.678

Input line: What value of phosphorylation enrichment has been reported for the following sequence? VYAANYYKLLG [ROR2_Y645_D644N]
Output line: 7.46

Input line: If you can, please state the reported phosphorylation enrichment value of CPPKVYELMRA [ABL2_Y515] .
Output line: 0.73

Input line: Could you tell me which phosphorylation enrichment is on file for CTTIHYSYMCN [TP53_Y234_N235S] ?
Output line: 0.667

Input line: Please give the measured phosphorylation enrichment for this sequence: LAAAGYDVEKN [H1-3_Y72]
Output line: 0.51

Input line: Query (sequence): GDYYCYLAEVA [YWHAG_Y133_R132C] ; field requested: phosphorylation enrichment
Output line: 13.5

====

# target_desc: Jak2 (UniProt O60674)
# Sequence (O60674 whole entry, looked up): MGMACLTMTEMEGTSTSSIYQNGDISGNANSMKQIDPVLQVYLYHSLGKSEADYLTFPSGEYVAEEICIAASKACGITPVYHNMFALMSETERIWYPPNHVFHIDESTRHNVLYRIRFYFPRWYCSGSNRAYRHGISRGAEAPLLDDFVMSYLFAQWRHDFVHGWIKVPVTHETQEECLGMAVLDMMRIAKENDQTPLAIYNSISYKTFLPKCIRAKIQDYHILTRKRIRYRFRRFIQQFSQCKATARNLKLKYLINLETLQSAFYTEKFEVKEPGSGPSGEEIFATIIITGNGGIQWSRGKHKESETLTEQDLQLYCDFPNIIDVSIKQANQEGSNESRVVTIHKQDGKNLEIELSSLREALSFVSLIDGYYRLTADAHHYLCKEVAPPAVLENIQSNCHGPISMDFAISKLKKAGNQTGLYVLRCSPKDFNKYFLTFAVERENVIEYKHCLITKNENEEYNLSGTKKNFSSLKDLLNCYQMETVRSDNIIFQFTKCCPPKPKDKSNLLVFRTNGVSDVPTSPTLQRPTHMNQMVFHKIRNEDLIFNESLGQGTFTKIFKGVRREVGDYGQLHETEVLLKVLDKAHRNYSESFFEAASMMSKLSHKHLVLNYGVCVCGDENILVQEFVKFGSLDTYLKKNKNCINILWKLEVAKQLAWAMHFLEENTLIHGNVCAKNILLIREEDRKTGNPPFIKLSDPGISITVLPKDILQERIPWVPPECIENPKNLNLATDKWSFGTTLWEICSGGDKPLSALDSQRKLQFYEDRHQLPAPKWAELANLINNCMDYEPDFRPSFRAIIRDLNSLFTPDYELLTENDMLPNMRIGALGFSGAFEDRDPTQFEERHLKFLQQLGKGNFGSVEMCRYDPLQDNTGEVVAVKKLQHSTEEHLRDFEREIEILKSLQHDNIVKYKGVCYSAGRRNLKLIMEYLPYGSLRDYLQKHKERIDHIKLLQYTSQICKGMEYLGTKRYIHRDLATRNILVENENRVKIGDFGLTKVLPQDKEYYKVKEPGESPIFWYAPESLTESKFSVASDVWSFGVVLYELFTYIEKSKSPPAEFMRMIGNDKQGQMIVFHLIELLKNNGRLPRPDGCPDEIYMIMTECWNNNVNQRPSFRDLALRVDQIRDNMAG
# assay_name: phosphorylation enrichment, bacterial display (enrichment ratio); higher = better substrate or ligand; peptides without Tyr show the background
measurement_name: phosphorylation enrichment
// return a plain number; no unit text

> print(dat)
                   monomer.sequence            measurement.name  reported
1  EPFEVYRIVPE [IRF8_Y110_K108E_YF]  phosphorylation enrichment     0.882
2     IVVVPYEPPEV [TP53_Y220_S215I]  phosphorylation enrichment     0.882
3      RILDVYIFLGP [GAA_Y340_G335R]  phosphorylation enrichment     0.858

Turning now to a further sequence:
Input line: Record CTTIHYIYMCN [TP53_Y234_N235I] : what is its phosphorylation enrichment with Jak2 (UniProt O60674)?
Output line: 0.907

====

# target_desc: Jak2 (UniProt O60674)
# assay_name: phosphorylation enrichment, bacterial display (enrichment ratio); higher = better substrate or ligand; peptides without Tyr show the background
measurement_name: phosphorylation enrichment
Format: numeric value only, no unit, no commentary.

Reference set (6 entries):
> print(dat)
                   monomer.sequence            target.desc  reported
1           KMATAYIRRMS [BCO1_Y264]  Jak2 (UniProt O60674)      0.58
2         KILGRYFETGS [PAX2_Y72_YF]  Jak2 (UniProt O60674)     0.759
3     HGVSSYDTIIS [LDLR_Y465_V468I]  Jak2 (UniProt O60674)      1.08
4  CDDGKYVYVVT [RPS6KA3_Y488_Y483C]  Jak2 (UniProt O60674)      1.42
5           KQLYAYKMLMA [TMC2_Y209]  Jak2 (UniProt O60674)     0.669
6     SDYYAYSPVQE [H6PD_Y449_R453Q]  Jak2 (UniProt O60674)      9.08

Input line: I'd like to know its phosphorylation enrichment. The sequence in question is KKLAEYGPQGK [CLCA1_Y147_R152K]
Output line: 0.366

Input line: Can you share its phosphorylation enrichment? I mean this sequence: LHQSTYQCFDV [SLC7A14_Y693_R695C_YF]
Output line: 1.14

Input line: Param item = SNPAYYVLEGV [INPPL1_Y987_N982S] ; retrieve measured phosphorylation enrichment.
Output line: 4

Input line: # phosphorylation enrichment lookup, item GGQEDYDRLRP [RAC3_Y64_A59G]
Output line: 0.861

Input line: Would you mind telling me what phosphorylation enrichment value was observed for QFPDVYAREEV [CRX_Y67_YF] ?
Output line: 1.53

Value source: the supplement of paper PMC10065799
